Tested on: Hs578T
Assay: drug sensitivity score (DSS), CellTox Green (DSS (AUC-based score)); higher = stronger drug effect (viability inhibition or cytotoxicity); extreme values may be limits of the assay
Conditions: incubation time: 72 h
quantity.kind: drug sensitivity score

>  <molecule>
CN1CCN(CCOc2cc(OC3CCOCC3)c3c(Nc4c(Cl)ccc5c4OCO5)ncnc3c2)CC1 [Saracatinib]

>  <quantity.kind>
drug sensitivity score

>  <result>
0

$$$$
>  <molecule>
Nc1nc(OCc2cc(Br)cs2)c2[nH]cnc2n1 [Lomeguatrib]

>  <quantity.kind>
drug sensitivity score

>  <result>
0

$$$$
>  <molecule>
Cc1ccc(NC(=O)c2ccc(CN3CCN(C)CC3)cc2)cc1Nc1nccc(-c2cccnc2)n1 [Imatinib]

>  <quantity.kind>
drug sensitivity score

>  <result>
0.401

$$$$
>  <molecule>
CN(C)CCN1C(=O)c2cccc3cc(N)cc(c23)C1=O [Amonafide]

>  <quantity.kind>
drug sensitivity score

>  <result>
0

$$$$
>  <molecule>
C[C@]12CC[C@H](O)CC1=CC[C@@H]1[C@@H]2CC[C@]2(C)C(c3cccnc3)=CC[C@@H]12 [Abiraterone]

>  <quantity.kind>
drug sensitivity score

>  <result>
0

$$$$

Q: Fill in: drug sensitivity score of NS(=O)(=O)OC[C@@H]1C[C@@H](n2ccc3c(N[C@H]4CCc5ccccc54)ncnc32)C[C@@H]1O [Pevonedistat] is ___
Ans: 0.549

---

Tested on: MDA-MB-453
Assay: drug sensitivity score (DSS), CellTox Green (DSS (AUC-based score)); higher = stronger drug effect (viability inhibition or cytotoxicity); extreme values may be limits of the assay
Settings: incubation time: 72 h
Overview of recorded drug sensitivity score for various molecules

Reference set, count: 5
>  <molecule>
Nc1nc(OCc2cc(Br)cs2)c2[nH]cnc2n1 [Lomeguatrib]

>  <drug sensitivity score>
0

$$$$
>  <molecule>
CN(C)C[C@@H]1CCn2cc(c3ccccc32)C2=C(C(=O)NC2=O)c2cn(c3ccccc23)CCO1 [Ruboxistaurin]

>  <drug sensitivity score>
4.68

$$$$
>  <molecule>
O=C(O)CCCc1ccc(N(CCCl)CCCl)cc1 [Chlorambucil]

>  <drug sensitivity score>
0

$$$$
>  <molecule>
Cc1ccc(NC(=O)c2ccc(CN3CCN(C)CC3)cc2)cc1Nc1nccc(-c2cccnc2)n1 [Imatinib]

>  <drug sensitivity score>
6.17

$$$$
>  <molecule>
c1ccc([C@H]2CN3CCSC3=N2)cc1 [Levamisole]

>  <drug sensitivity score>
1.72

$$$$

Q: Can you share its drug sensitivity score? I mean this molecule: `Nc1ncnc2c1c(COc1cccc(Cl)c1)nn2C1CCOCC1`
Ans: 0

Q: For CN1CCN(CCOc2cc(OC3CCOCC3)c3c(Nc4c(Cl)ccc5c4OCO5)ncnc3c2)CC1 [Saracatinib] , what is its reported drug sensitivity score?
Ans: 0

Q: Given the entry CCCCCCCCc1ccc(CCC(N)(CO)CO)cc1 [Fingolimod] , report its measured drug sensitivity score.
Ans: 1.86

---

Test system: MDA-MB-468
Test: normalised response (% of control), CellTox Green; higher = less cell death (100 = DMSO, 0 = benzethonium chloride kill control)
Conditions: incubation time: 72 h
Decision: normalised response compared against 90%; not below it gives Satisfied, below it gives Not satisfied.

Consider the worked cases shown below.
>  <compound>
COc1ccccc1S(=O)(=O)Nc1ccc2c(c1)CN(C)C(=O)N2 [PFI-1] (100 nM)

>  <target>
MDA-MB-468

>  <classification>
Satisfied

$$$$
>  <compound>
CC(C)c1c(C(=O)Nc2ccccc2)c(-c2ccccc2)c(-c2ccc(F)cc2)n1CC[C@@H](O)C[C@@H](O)CC(=O)O [Atorvastatin] (10000 nM)

>  <target>
MDA-MB-468

>  <classification>
Satisfied

$$$$
>  <compound>
CC[C@]1(O)C[C@H]2CN(CCc3c([nH]c4ccccc34)[C@@](C(=O)OC)(c3cc4c(cc3OC)N(C=O)[C@H]3[C@@](O)(C(=O)OC)[C@H](OC(C)=O)[C@]5(CC)C=CCN6CC[C@]43[C@@H]65)C2)C1 [Vincristine] (10 nM)

>  <target>
MDA-MB-468

>  <classification>
Not satisfied

$$$$
>  <compound>
CN(C)C[C@@H]1CCn2cc(c3ccccc32)C2=C(C(=O)NC2=O)c2cn(c3ccccc23)CCO1 [Ruboxistaurin] (1000 nM)

>  <target>
MDA-MB-468

>  <classification>
Satisfied

$$$$
>  <compound>
C/C(=C\c1csc(C)n1)[C@@H]1C[C@@H]2O[C@]2(C)CCC[C@H](C)[C@H](O)[C@@H](C)C(=O)C(C)(C)[C@@H](O)CC(=O)O1 [Patupilone] (100 nM)

>  <target>
MDA-MB-468

>  <classification>
Not satisfied

$$$$

Q: Say whether NS(=O)(=O)OC[C@@H]1C[C@@H](n2ccc3c(N[C@H]4CCc5ccccc54)ncnc32)C[C@@H]1O [Pevonedistat] (100 nM) shows normalised response of 90% or more.
Ans: Satisfied

Q: Is the recorded value of normalised response equal to or greater than 90% for this compound? CN(C)CCN1C(=O)c2cccc3cc(N)cc(c23)C1=O [Amonafide] (10000 nM)
Ans: Satisfied
